system: Wolbachia pipientis; assay: Anti-Wolbachia Cell-Based Screen; type: functional; parameters: scale not given: in the data most compounds retested in dose-response had high values; settings: 5 µM
About 13,000 (27%) of roughly 48,000 compounds showed an effect of 50% or more. Some of the results follow.
Items are presented alongside their recorded Percent Effect.
Measurement label: Percent Effect (%)

- CC(C)N(C)[C@@H]1CCN(Cc2nccs2)[C@H]1Cc1ccncc1.O=C(O)C(F)(F)F.O=C(O)C(F)(F)F.O=C(O)C(F)(F)F: -17.48
- Cn1ccnc1CN1CCN(c2ccc(C#N)cn2)CC1: -0.9775
- CS(=O)(=O)NCC1CCCN(c2ccc(C#N)cn2)C1 (stereo not given): 7.798
- CN(C)S(=O)(=O)NCc1nc(-c2cccc(F)c2)c(-c2ccccn2)[nH]1: -1.399
- CCOCCN1CCN(c2ccc(C#N)cn2)CC1CC (stereo not given): 137.2
- CCn1c(CN2CCCC(Cn3cncn3)C2)nc2c(F)cccc21 (stereo not given): -3.133
- Cc1ccc2nc(CN3CCN(C4CCCC4)C(=O)C3)cc(O)c2c1: 1.578
- CNC(=O)[C@H]1C[C@H]2OCC[C@H]2N(CC2CCOCC2)C1.O=C(O)C(F)(F)F: -4.721
- Cc1ccc2nc(CN3CCN(C4CCCCC4)C(=O)C3)cc(O)c2c1: -5.19
- CN(Cc1cccc(F)c1)C(=O)CN1CCCCC1Cn1cncn1 (stereo not given): -4.656

###

test system: Wolbachia pipientis; assay: Anti-Wolbachia Cell-Based Screen; format: functional; design: scale not given: in the data most compounds retested in dose-response had high values; details: 5 µM
Out of some 48,000 compounds screened, about 13,000 (27%) showed an effect of 50% or more. The list shows a part of the results.
Percent Effect for assorted molecules
Measurement label: Percent Effect (%)

* N#CCCSc1sc2c(O)cc(O)nc2c1C#N | 107.9
* Cc1nc(Cn2cc(I)cc(C)c2=O)oc1C | 3.254
* COc1ccc(CN2CCC3(CC2)CN(c2ccccn2)CCO3)cc1.O=C(O)C(F)(F)F.O=C(O)C(F)(F)F | -0.9926
* CS(=O)(=O)NCCNC(=O)NC1(c2ccc(F)cc2)CCCC1 | 1.188
* CC(C)NC(=O)CC1COC2(CCN(Cc3cccnc3)CC2)C1.O=C(O)C(F)(F)F.O=C(O)C(F)(F)F (configuration not stated) | 94.4
* Cc1nnc(Cn2cc(I)cc(C)c2=O)o1 | 62.5
* CNc1cncc(C2CCCN2C(=O)Cn2ccnc2C)n1 (configuration not stated) | 100.6
* O=C(Nc1cccnc1)NC1CCN(c2ccccc2OC(F)F)C1 (configuration not stated) | -19.82
* FC(F)(F)Cn1nnnc1SCCN1CCCCC1 | -6.458
* COCC(=O)N[C@H](C)c1onc(-c2ccc(Cl)cc2)c1C(=O)O | -3.63
* N#Cc1c(SCCN2CCCCC2)sc2c(O)cc(O)nc12 | 98.27
* CCN(Cc1ccncc1)C(=O)C1COc2c(cccc2OC)C1 (configuration not stated) | -5.298
* N#Cc1ccc(C2CC(=O)Nc3c2cnn3C2CCCC2)cc1 (configuration not stated) | 11.66
* CN1CCN(Cc2ccncc2)C(=O)C12CCN(c1nccs1)CC2.O=C(O)C(F)(F)F.O=C(O)C(F)(F)F | -19.3
* Cc1nc(N2CCOCC2)sc1C(=O)NCC(C)(C)N1CCCCC1 | 59.39
* N#Cc1ccc(F)c(CSCCN2CCOCC2)c1 | -32.26
* COc1ccc(CN2CCOC3(CCCN(C(C)=O)C3)C2)cc1.O=C(O)C(F)(F)F (configuration not stated) | -1.413
* CC(C)NC(=O)[C@H]1C[C@@H]2[C@@H](C1)OCCN2Cc1ccsc1.O=C(O)C(F)(F)F | 9.511
* CC(C)(CNC(=O)C1CCCCN1S(C)(=O)=O)N1CCOCC1 (configuration not stated) | 1.375
* CC(C)NC(=O)CC1COC2(CCN(Cc3ccsc3)CC2)C1.O=C(O)C(F)(F)F (configuration not stated) | 89.57
* CCN1CCN(C)C2(CCN(Cc3ccsc3)CC2)C1=O.O=C(O)C(F)(F)F.O=C(O)C(F)(F)F | 94.35
* Cc1ccsc1C(=O)NC1CCS(=O)(=O)c2ccccc21 (configuration not stated) | 9
* O=C(NCc1ccc(F)cc1)NCC1(N2CCOCC2)CCSC1 (configuration not stated) | -10.73
* COc1ccc(CCC(=O)NCCC2CCCO2)cc1Br (configuration not stated) | 4.709
* CN(C)C(=O)NC1COC2(CCN(Cc3ccco3)CC2)C1 (configuration not stated) | -11.16
* CCc1ccsc1C(=O)NC(C#N)CC(C)C (configuration not stated) | 102.3
* CNc1nc(C)c(C(=O)N2CCCCC2CCN2CCOCC2)s1 (configuration not stated) | -13.11
* COc1cc(C(=O)N2Cc3cnc(C(C)(C)C)nc3C2)ccn1 | -33.89
* CSc1ccsc1C(=O)NS(=O)(=O)c1cnn(C)c1 | -33.43
* Cc1cnc(CN(Cc2ccccc2)CC(O)c2cccs2)cn1 (configuration not stated) | -0.3476
* COc1ccccc1CN(Cc1cccs1)S(=O)(=O)N(C)C(C)C | -8.287
* Cc1cccc(NC(=O)CNC(=O)Cn2ncc(Cl)c(Cl)c2=O)c1C | -3.817
* O=C(Nc1ccc(-n2cccn2)cc1)N1CCOCC(O)C1 (configuration not stated) | 0.445
* CCc1ccsc1C(=O)NC(C#N)CC (configuration not stated) | 105.4
* Cc1noc(C)c1Cn1cc(I)cc(C)c1=O | 13.31
* CNc1nc(C)c(C(=O)NCC(C)(C)N2CCCCC2)s1 | 51.74
* CCc1nccn1CCC(=O)N1CCCC1c1cncc(NC)n1 (configuration not stated) | 72.9
* CCN1CCN(C)C(=O)C12CCN(Cc1ccsc1)CC2.O=C(O)C(F)(F)F | -27.74
* CCCC(=O)N(CCCN1CCOCC1)c1nc2c(F)cccc2s1.Cl | 33.03
* Cc1n[nH]c(C)c1NC(=O)CN1CCOC(Cn2cccn2)C1 (configuration not stated) | 4.084
* COc1nc(C)c(C(=O)NCc2cc(N3CCOCC3)ncn2)s1 | -8.084
* Cc1cnn(CCNCC(=O)NC2(C#N)CCCC2)c1 | 1.433
* CN(Cc1ccccc1NCc1cccnc1)C(=O)c1cccs1 | 7.108
* NC(=O)c1ccnc(N2CCN(Cc3ccc(F)cc3Cl)CC2)c1 | 9.794
* CCOc1ccc(-c2nc(CN(C)Cc3c(C)noc3C)cs2)cc1 | -23.12
* CCC(O)CNC(=O)c1coc(COc2ccc3sc(C)nc3c2)n1 (configuration not stated) | 7.295
* CC(Cn1cccn1)NCC(=O)NC1(C#N)CCCCC1 (configuration not stated) | 4.138
